Listed here are compounds together with their documented HC10 Red blood cells.
System: human RBCs
Format: cell-based
Square brackets hold non-standard residues; d marks the D form. Peptide text beside a SMILES is read from it. Nspe = C[C@H](NCC(=O)O)c1ccccc1; Nphe = O=C(O)CNCc1ccccc1; Nlys = NCCCCNCC(=O)O
// unit must come after the numeric part

C[C@@H](c1ccccc1)N(CC(N)=O)C(=O)CN(CCCCN)C(=O)CN(C(=O)CN(C(=O)CN(CCCCN)C(=O)CN(C(=O)CN(C(=O)CN(CCCCN)C(=O)CN(C(=O)CN(C(=O)CNCCCCN)[C@@H](C)c1ccccc1)[C@@H](C)c1ccccc1)[C@@H](C)c1ccccc1)[C@@H](C)c1ccccc1)[C@@H](C)c1ccccc1)[C@@H](C)c1ccccc1 [Peptoid 111mer, H-(NLys-Nspe-Nspe)3-NLys-Nspe-NH2] (H-[Nlys][Nspe][Nspe][Nlys][Nspe][Nspe][Nlys][Nspe][Nspe][Nlys][Nspe]-NH2) : 103 µM
NCCCCNCC(=O)N(CC(=O)N(CC(=O)N(CCCCN)CC(=O)N(CC(=O)N(CC(=O)N(CCCCN)CC(=O)N(CC(=O)N(CC(=O)N(CCCCN)CC(=O)N(CC(=O)N(CC(N)=O)Cc1ccccc1)Cc1ccccc1)Cc1ccccc1)Cc1ccccc1)Cc1ccccc1)Cc1ccccc1)Cc1ccccc1)Cc1ccccc1 [Peptoid 1achiral, H-(NLys-Npm-Npm)4-NH2] (H-[Nlys][Nphe][Nphe][Nlys][Nphe][Nphe][Nlys][Nphe][Nphe][Nlys][Nphe][Nphe]-NH2) : 183 µM
C[C@@H](c1ccccc1)N(CC(=O)N(CC(=O)N(CCCCN)CC(=O)N(CC(=O)N(CC(=O)N(CCCCN)CC(=O)N(CC(=O)N(CC(=O)N(CCCCN)CC(=O)N(CC(=O)N(CC(N)=O)Cc1ccccc1)Cc1ccccc1)Cc1ccccc1)Cc1ccccc1)Cc1ccccc1)Cc1ccccc1)Cc1ccccc1)C(=O)CNCCCCN [1achiral-Nspe 2, H-NLys-Nspe-Npm-(NLys-Npm-Npm)3-NH2] (H-[Nlys][Nspe][Nphe][Nlys][Nphe][Nphe][Nlys][Nphe][Nphe][Nlys][Nphe][Nphe]-NH2) : 160 µM

Read the next record carefully.
Ask: State, for human RBCs, measured HC10 Red blood cells of the compound listed here: C[C@@H](c1ccccc1)N(CC(N)=O)C(=O)CN(C(=O)CN(CCCCN)C(=O)CN(Cc1ccccc1)C(=O)CN(Cc1ccccc1)C(=O)CN(CCCCN)C(=O)CN(C(=O)CN(C(=O)CN(CCCCN)C(=O)CN(Cc1ccccc1)C(=O)CN(Cc1ccccc1)C(=O)CNCCCCN)[C@@H](C)c1ccccc1)[C@@H](C)c1ccccc1)[C@@H](C)c1ccccc1 [1-Npm2,3,8,9, H-(NLys-Npm-Npm-NLys-Nspe-Nspe)2-NH2]
Result: 80 µM

###

Type: cell-based
RECORDED CONDITIONS: MTS assay, cells treated 24 h; concentration causing 50% cell death; read-out: LC50 Lncap (prostate cancer)
Square brackets hold non-standard residues; d marks the D form. Peptide text beside a SMILES is read from it. Nspe = C[C@H](NCC(=O)O)c1ccccc1; Nlys = NCCCCNCC(=O)O
METRIC: CC50 (µM)
Write it as a number; the unit µM goes unstated.

Ask: Assign CC50 to the following record: C[C@@H](c1ccccc1)N(CC(N)=O)C(=O)CN(C(=O)CN(CCCCN)C(=O)CN(C(=O)CN(C(=O)CN(CCCCN)C(=O)CN(C(=O)CN(C(=O)CN(CCCCN)C(=O)CN(C(=O)CN(C(=O)CNCCCCN)[C@@H](C)c1ccccc1)[C@@H](C)c1ccccc1)[C@@H](C)c1ccccc1)[C@@H](C)c1ccccc1)[C@@H](C)c1ccccc1)[C@@H](C)c1ccccc1)[C@@H](C)c1ccccc1 [Peptoid 1, H-(NLys-Nspe-Nspe)4-NH2] (H-[Nlys][Nspe][Nspe][Nlys][Nspe][Nspe][Nlys][Nspe][Nspe][Nlys][Nspe][Nspe]-NH2)
Result: 5

###

EXPERIMENT SUMMARY: MTS cell viability assay, primary dermal fibroblasts
Format: cell-based
RECORDED CONDITIONS: MTS assay, cells treated 24 h; concentration causing 50% cell death; read-out: LC50 Primary dermal fibroblast
Description: A library of cationic, amphipathic peptoid oligomers (“capetoids”) with various chain lengths, charges, helicity, hydrophobicity and amphipathicity have been synthesized. Their activities towards several in vitro cultured cancer cell lines were tested via MTS assays. Primary dermal fibroblasts and freshly isolated red blood cells were also tested to estimate their biosafety. […]
Square brackets hold non-standard residues; d marks the D form. Peptide text beside a SMILES is read from it. Nspe = C[C@H](NCC(=O)O)c1ccccc1; Nphe = O=C(O)CNCc1ccccc1; Nlys = NCCCCNCC(=O)O
Listed here are molecules together with their documented CC50.
Write it as a number; the unit µM goes unstated.

Examples from the recorded data:
C[C@@H](c1ccccc1)N(CC(N)=O)C(=O)CN(CCCCN)C(=O)CN(C(=O)CN(C(=O)CN(CCCCN)C(=O)CN(C(=O)CN(C(=O)CN(CCCCN)C(=O)CN(C(=O)CN(C(=O)CNCCCCN)[C@@H](C)c1ccccc1)[C@@H](C)c1ccccc1)[C@@H](C)c1ccccc1)[C@@H](C)c1ccccc1)[C@@H](C)c1ccccc1)[C@@H](C)c1ccccc1 [Peptoid 111mer, H-(NLys-Nspe-Nspe)3-NLys-Nspe-NH2] (H-[Nlys][Nspe][Nspe][Nlys][Nspe][Nspe][Nlys][Nspe][Nspe][Nlys][Nspe]-NH2) : 18.5
C[C@@H](c1ccccc1)N(CC(N)=O)C(=O)CN(C(=O)CN(CCCCN)C(=O)CN(Cc1ccccc1)C(=O)CN(Cc1ccccc1)C(=O)CN(CCCCN)C(=O)CN(C(=O)CN(C(=O)CN(CCCCN)C(=O)CN(Cc1ccccc1)C(=O)CN(Cc1ccccc1)C(=O)CNCCCCN)[C@@H](C)c1ccccc1)[C@@H](C)c1ccccc1)[C@@H](C)c1ccccc1 : 18.5

Read the next record carefully.
Ask: Assign CC50 to the following record: C[C@@H](c1ccccc1)N(CC(=O)N(CC(=O)N(CCCCN)CC(=O)N(CC(=O)N(CC(=O)N(CCCCN)CC(=O)N(CC(=O)N(CC(=O)N(CCCCN)CC(=O)N(CC(=O)N(CC(N)=O)Cc1ccccc1)Cc1ccccc1)Cc1ccccc1)Cc1ccccc1)Cc1ccccc1)Cc1ccccc1)Cc1ccccc1)C(=O)CNCCCCN [1achiral-Nspe 2, H-NLys-Nspe-Npm-(NLys-Npm-Npm)3-NH2] (H-[Nlys][Nspe][Nphe][Nlys][Nphe][Nphe][Nlys][Nphe][Nphe][Nlys][Nphe][Nphe]-NH2)
Result: 36.5

###

Format: cell-based
RECORDED CONDITIONS: MTS assay, cells treated 24 h; concentration causing 50% cell death; read-out: LC50 Ovcar3 (ovarian cancer)
Square brackets hold non-standard residues; d marks the D form. Peptide text beside a SMILES is read from it. Nspe = C[C@H](NCC(=O)O)c1ccccc1; Nphe = O=C(O)CNCc1ccccc1; Nlys = NCCCCNCC(=O)O
Listed here are compounds together with their documented CC50.
Write it as a number; the unit µM goes unstated.

NCCCCNCC(=O)N(CC(=O)N(CC(=O)N(CCCCN)CC(=O)N(CC(=O)N(CC(=O)N(CCCCN)CC(=O)N(CC(=O)N(CC(=O)N(CCCCN)CC(=O)N(CC(=O)N(CC(N)=O)Cc1ccccc1)Cc1ccccc1)Cc1ccccc1)Cc1ccccc1)Cc1ccccc1)Cc1ccccc1)Cc1ccccc1)Cc1ccccc1 [Peptoid 1achiral, H-(NLys-Npm-Npm)4-NH2] (H-[Nlys][Nphe][Nphe][Nlys][Nphe][Nphe][Nlys][Nphe][Nphe][Nlys][Nphe][Nphe]-NH2) : 16

Read the next record carefully.
Ask: Assign CC50 to the following record: C[C@@H](c1ccccc1)N(CC(=O)N(CC(=O)N(CCCCN)CC(=O)N(CC(=O)N(CC(=O)N(CCCCN)CC(=O)N(CC(=O)N(CC(=O)N(CCCCN)CC(=O)N(CC(=O)N(CC(N)=O)Cc1ccccc1)Cc1ccccc1)Cc1ccccc1)Cc1ccccc1)Cc1ccccc1)Cc1ccccc1)Cc1ccccc1)C(=O)CNCCCCN [1achiral-Nspe 2, H-NLys-Nspe-Npm-(NLys-Npm-Npm)3-NH2] (H-[Nlys][Nspe][Nphe][Nlys][Nphe][Nphe][Nlys][Nphe][Nphe][Nlys][Nphe][Nphe]-NH2)
Result: 15.5

###

EXPERIMENT SUMMARY: MTS cell viability assay, primary dermal fibroblasts
Type: cell-based
RECORDED CONDITIONS: MTS assay, cells treated 24 h; concentration causing 50% cell death; read-out: LC50 Primary dermal fibroblast
Description: A library of cationic, amphipathic peptoid oligomers (“capetoids”) with various chain lengths, charges, helicity, hydrophobicity and amphipathicity have been synthesized. Their activities towards several in vitro cultured cancer cell lines were tested via MTS assays. Primary dermal fibroblasts and freshly isolated red blood cells were also tested to estimate their biosafety. […]
Square brackets hold non-standard residues; d marks the D form. Peptide text beside a SMILES is read from it. Nspe = C[C@H](NCC(=O)O)c1ccccc1; Nphe = O=C(O)CNCc1ccccc1; Nlys = NCCCCNCC(=O)O
Listed here are compounds together with their documented CC50.
Write it as a number; the unit µM goes unstated.

C[C@@H](c1ccccc1)N(CC(N)=O)C(=O)CN(C(=O)CN(CCCCN)C(=O)CN(C(=O)CN(C(=O)CN(CCCCN)C(=O)CN(C(=O)CN(C(=O)CN(CCCCN)C(=O)CN(C(=O)CN(C(=O)CNCCCCN)[C@@H](C)c1ccccc1)[C@@H](C)c1ccccc1)[C@@H](C)c1ccccc1)[C@@H](C)c1ccccc1)[C@@H](C)c1ccccc1)[C@@H](C)c1ccccc1)[C@@H](C)c1ccccc1 [Peptoid 1, H-(NLys-Nspe-Nspe)4-NH2] (H-[Nlys][Nspe][Nspe][Nlys][Nspe][Nspe][Nlys][Nspe][Nspe][Nlys][Nspe][Nspe]-NH2) : 5

Read the next record carefully.
Ask: Assign CC50 to the following record: NCCCCNCC(=O)N(CC(=O)N(CC(=O)N(CCCCN)CC(=O)N(CC(=O)N(CC(=O)N(CCCCN)CC(=O)N(CC(=O)N(CC(=O)N(CCCCN)CC(=O)N(CC(=O)N(CC(N)=O)Cc1ccccc1)Cc1ccccc1)Cc1ccccc1)Cc1ccccc1)Cc1ccccc1)Cc1ccccc1)Cc1ccccc1)Cc1ccccc1 [Peptoid 1achiral, H-(NLys-Npm-Npm)4-NH2] (H-[Nlys][Nphe][Nphe][Nlys][Nphe][Nphe][Nlys][Nphe][Nphe][Nlys][Nphe][Nphe]-NH2)
Result: 39.5
